System: Pseudotyped HCV GT1b particles (HCVpp), entry into Huh7-high CD81 cells
Assay: microbe, parasite or virus in culture
Assay type: cell-based, HCV GT1b Con1 strain
Details: Hepatitis C virus, GT1B, 72 h, read-out: HCVpp GT-1b (EC50, μM)
Where a name gives a salt, the structure may show the parent alone.
readout-name: EC50 (µM)
Numeric answer only, unit µM assumed.

What does the data say about its EC50? Entry: `Nc1nc(Nc2cc(Cl)c(-c3ccc(S(=O)(=O)N[C@H]4C[C@@H](O)C4)cc3)c(C(F)(F)F)c2)n[nH]1`
0.038

What does the data say about its EC50? Entry: `CC(C)(C)OC(=O)N1CCC[C@H]1COc1ccc(-c2c(Cl)cc(Nc3n[nH]c(N)n3)cc2Cl)cc1`
0.401

What does the data say about its EC50? Entry: COCCN1CCC(Oc2ccc(-c3c(Cl)cc(Nc4n[nH]c(N)n4)cc3C(F)(F)F)cc2)CC1 [Compound 143, hydrochloride]
0.231

What does the data say about its EC50? Entry: `Nc1nc(Nc2cc(Cl)c(-c3ccc(S(=O)(=O)NC4CC4)cc3)c(C(F)(F)F)c2)n[nH]1`
0.011

What does the data say about its EC50? Entry: Nc1nc(Nc2cc(Cl)c(-c3ccc(OCC(O)CO)cc3)c(Cl)c2)n[nH]1 (stereo not drawn)
0.213

What does the data say about its EC50? Entry: `Nc1nc(Nc2ccc(-c3ccc(F)cc3)c(C(F)(F)F)c2)n[nH]1`
0.356

What does the data say about its EC50? Entry: `COc1ccccc1-c1c(Cl)cc(Nc2n[nH]c(N)n2)cc1Cl`
0.181

What does the data say about its EC50? Entry: `COc1cc(-c2c(Cl)cc(Nc3n[nH]c(N)n3)cc2C(F)(F)F)ccc1S(=O)(=O)NC(C)(C)C`
0.02

What does the data say about its EC50? Entry: `CC(C)(C)OC(=O)N1CCN(S(=O)(=O)c2ccc(-c3c(Cl)cc(Nc4n[nH]c(N)n4)cc3C(F)(F)F)cc2)C2(CC2)C1`
0.049

What does the data say about its EC50? Entry: `CNC(=O)c1cccc(-c2c(Cl)cc(Nc3n[nH]c(N)n3)cc2Cl)c1`
0.218

What does the data say about its EC50? Entry: `CN1C(C)(C)CC(Sc2ccc(-c3c(Cl)cc(Nc4n[nH]c(N)n4)cc3C(F)(F)F)cc2)CC1(C)C`
0.144

What does the data say about its EC50? Entry: `Nc1nc(Nc2cc(Cl)c(-c3ccc(S(=O)(=O)N4CCC(O)CC4)cc3)c(C(F)(F)F)c2)n[nH]1`
0.115

What does the data say about its EC50? Entry: `Nc1nc(Nc2cc(Cl)c(-c3ccc(S(=O)(=O)N4CCCC4)cc3)c(Cl)c2)n[nH]1`
0.028

What does the data say about its EC50? Entry: `Nc1nc(Nc2cc(Cl)c(-c3ccc(S(N)(=O)=O)cc3)c(C(F)(F)F)c2)n[nH]1`
0.028

What does the data say about its EC50? Entry: `Nc1nc(Nc2cc(Cl)c(-c3ccc(NC(=O)C4CCS(=O)(=O)CC4)cc3)c(C(F)(F)F)c2)n[nH]1`
0.122

###

System: Pseudotyped HCV GT1b particles (HCVpp), entry into Huh7-high CD81 cells
Test: microbe, parasite or virus in culture
Assay type: cell-based, HCV GT1b Con1 strain
Conditions: Hepatitis C virus, GT1B, 72 h, read-out: HCVpp GT-1b (EC50, μM)
Counter-ions that a name gives are not always drawn.
readout-name: log10 of EC50 (log10 of the value in µM)
Values are log10 of EC50 in µM.

What does the data say about its log10 of EC50? Entry: `CC(C)C(=O)Nc1cccc(-c2c(Cl)cc(Nc3n[nH]c(N)n3)cc2Cl)c1`
-1.17

What does the data say about its log10 of EC50? Entry: `Nc1n[nH]c(Nc2cc(F)c(-c3cccc(F)c3)c(C(F)(F)F)c2)n1`
-0.16

What does the data say about its log10 of EC50? Entry: `Nc1nc(Nc2cc(Cl)c(-c3cccc4ccccc34)c(Cl)c2)n[nH]1`
-0.64

What does the data say about its log10 of EC50? Entry: `Nc1nc(Nc2cc(Cl)c(-c3ccc(OCc4ccccn4)cc3)c(Cl)c2)n[nH]1`
-0.24

What does the data say about its log10 of EC50? Entry: Nc1nc(Nc2cc(Cl)c(-c3ccc(S(=O)(=O)C4CCN(CCC(F)(F)F)CC4)cc3)c(C(F)(F)F)c2)n[nH]1 [Compound 4, hydrochloride]
-2.30

What does the data say about its log10 of EC50? Entry: `Nc1nc(Nc2cc(Cl)c(-c3cccc(Cl)c3)c(Cl)c2)n[nH]1`
-0.24

What does the data say about its log10 of EC50? Entry: `Nc1nc(Nc2cc(Cl)c(-c3ccc(S(=O)(=O)NCCO)cc3)c(Cl)c2)n[nH]1`
-1.20

What does the data say about its log10 of EC50? Entry: `CS(=O)(=O)Nc1ccc(-c2c(Cl)cc(Nc3n[nH]c(N)n3)cc2Cl)cc1F`
-0.38
